Please respond with reported pIC50 for every item in the list.
Molecular target: hCRTH2 receptor (Homo sapiens, UniProt Q9Y5Y4)
Construct: expressed in transfected cells; host or cells: HEK293
Assay: Radioligand displacement assay (3H-PGD2) on hCRTH2 receptor membranes
Type: binding
Details: antagonistic activity; 3H-PGD2 displacement on HEK293-hCRTH2 membrane fragments
// pIC50 here means minus log10 of the molar concentration (mol/L)

Asked: # query: pIC50 of entry O=C(O)COc1ccc(F)cc1C1c2ccccc2CCN1C(=O)COc1ccccc1Cl (racemic)
Given back: 7.00

Asked: Record request: pIC50 value, item O=C(O)COc1ccc(Cl)cc1[C@@H]1c2ccccc2CCN1C(=O)OCc1ccccc1Cl
Given back: 8.24

Asked: // query pIC50 value for entry COc1ccccc1CNC(=S)N1CCc2ccccc2C1c1cc(Cl)ccc1OCC(=O)O (racemic)
Given back: 7.12

Asked: Would you kindly share the measured pIC50 for COc1ccc(CCC(=O)N2CCc3ccccc3C2c2cc(F)ccc2OCC(=O)O)cc1 (racemic) ?
Given back: 6.57

Asked: What does the data say about its pIC50? Entry: O=C(O)COc1ccc(Cl)cc1C1c2ccccc2CCN1C(=O)OCc1c(F)cccc1Cl (racemic)
Given back: 8.40

Asked: I have this compound here, Cc1cnc(COC(=O)N2CCc3ccccc3[C@H]2c2cc(Cl)ccc2OCC(=O)O)s1 , and I need its recorded pIC50.
Given back: 8.30

Asked: Consider the compound shown here: O=C(O)COc1ccc(F)cc1C1c2ccccc2CCN1C(=O)Cc1csc2ccccc12 (racemic) What is its recorded pIC50?
Given back: 6.91

Asked: // returns reported pIC50 for input CS(=O)(=O)Nc1cccc2c1CCN(C(=O)OCc1ccccc1)C2c1cc(F)ccc1OCC(=O)O (racemic)
Given back: 6.85

Asked: Item under review: O=C(O)COc1ccc(F)cc1C1c2ccccc2CCN1C(=O)CCN1C(=O)COc2ccc(Cl)cc21 (racemic) . Reported pIC50?
Given back: 6.13

---

Provide the reported log10 IC50 of each item.
Biological target: hCRTH2 receptor (Homo sapiens)
Construct: expressed in transfected cells; host or cells: HEK293
Sequence (Q9Y5Y4 1-395): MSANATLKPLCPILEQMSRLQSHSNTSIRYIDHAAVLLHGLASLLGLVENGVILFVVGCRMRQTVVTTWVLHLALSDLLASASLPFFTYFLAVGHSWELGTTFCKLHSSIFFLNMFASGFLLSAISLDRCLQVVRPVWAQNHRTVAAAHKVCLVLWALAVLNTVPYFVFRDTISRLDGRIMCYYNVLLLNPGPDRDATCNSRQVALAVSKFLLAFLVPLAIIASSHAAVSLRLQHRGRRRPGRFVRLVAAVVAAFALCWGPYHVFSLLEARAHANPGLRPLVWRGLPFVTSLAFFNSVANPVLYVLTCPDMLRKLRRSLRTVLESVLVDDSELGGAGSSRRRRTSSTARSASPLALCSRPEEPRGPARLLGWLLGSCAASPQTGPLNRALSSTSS
Assay: Radioligand displacement assay (3H-PGD2) on hCRTH2 receptor membranes
Format: binding
Settings: antagonistic activity, 3H-PGD2 radioligand displacement, HEK293-hCRTH2 membranes
Log scale reminder: IC50 in nM, then log10 taken.

Asked: Record request: log10 IC50 value, item O=C(O)COc1ccc(Cl)cc1C1c2ccc(F)cc2CCN1C(=O)[C@@H]1C[C@H]1c1ccccc1C(F)(F)F (mixture of isomers)
Given back: 0.34

Asked: I'd like to know its log10 IC50. The molecule in question is COc1ccc2onc(CC(=O)N3Cc4ccccc4C3c3cc(Cl)ccc3OCC(=O)O)c2c1 (racemic)
Given back: 1.30

Asked: Field request: log10 IC50 | item: Cc1cc(COC(=O)N2CCc3ccccc3[C@H]2c2cc(Cl)ccc2OCC(=O)O)n(C)n1
Given back: -0.39

Asked: So what does the record say about log10 IC50 for O=C(O)COc1ccc(Cl)cc1[C@@H]1c2ccc(F)cc2CCN1C(=O)OCc1cccc(F)c1 ?
Given back: 0.45

Asked: # get_value(readout='log10 IC50', item= Cc1cc(C)n(CCOC(=O)N2CCc3c(ccc(F)c3F)[C@H]2c2cc(Cl)ccc2OCC(=O)O)n1 )
Given back: 0.71

Asked: What does the data say about its log10 IC50? Entry: O=C(O)COc1ccc(Cl)cc1C1c2ccc(F)cc2CN1C(=O)OCc1ccccc1 (racemic)
Given back: 1.11

Asked: Consider the molecule O=C(O)COc1ccc(Cl)cc1C1c2ccccc2CCN1C(=O)CNc1ccccc1 (racemic) and give its measured log10 IC50.
Given back: 2.93

Asked: Value lookup for log10 IC50; key = O=C(O)COc1ccc(Cl)cc1[C@@H]1c2ccc(F)cc2CCN1C(=O)OCc1ccncn1
Given back: 1.66

Asked: Can you look up the measured log10 IC50 of Cc1conc1COC(=O)N1CCc2c(ccc(F)c2F)[C@H]1c1cc(Cl)ccc1OCC(=O)O for me?
Given back: 0.49

Asked: Entry O=C(O)COc1ccc(Cl)cc1[C@@H]1c2cccc(F)c2CCN1C(=O)OCc1ccccc1F : reported log10 IC50 = ?
Given back: 0.25

Asked: May I ask what log10 IC50 has been recorded for O=C(O)COc1ccc(Cl)cc1[C@@H]1c2ccccc2CCN1C(=O)OCc1nc2ccccc2s1 ?
Given back: 0.29

Asked: // lookup log10 IC50 for Cn1cc(CCC(=O)N2Cc3ccccc3C2c2cc(Cl)ccc2OCC(=O)O)c2ccccc21 (racemic)
Given back: 1.41

Asked: For Cc1ccc(OCC(=O)N2CCc3cc(F)ccc3C2c2cc(Cl)ccc2OCC(=O)O)c(C)n1 (racemic) , what is its reported log10 IC50?
Given back: 1.61

---

Molecular target: hCRTH2 receptor (Homo sapiens, UniProt Q9Y5Y4)
Construct: expressed in transfected cells; host or cells: HEK293
Assay: Radioligand displacement assay (3H-PGD2) on hCRTH2 receptor membranes
Assay type: binding
Settings: antagonistic activity, 3H-PGD2 radioligand displacement, HEK293-hCRTH2 membranes
Measured quantity: IC50 (nM)
State just the number; it will be interpreted in nM.

Asked: Could you share which IC50 value was measured for O=C(O)COc1ccc(Cl)cc1C1c2ccccc2CN1C(=O)CCn1ncc2cccc(F)c21 (single isomer, unassigned) [Example 551] ?
Given back: 292

Asked: Form field: reported IC50 of O=C(O)COc1ccc(Cl)cc1C1c2ccccc2CCN1C(=O)[C@@H]1C[C@H]1c1cccc(F)c1 (mixture of isomers) [Example 424]
Given back: 12

Asked: Tell me the measured IC50 of O=C(O)COc1ccc(Cl)cc1C1c2ccccc2CCN1C(=O)COc1ccc(Cl)nc1 (racemic) [Example 472] , please.
Given back: 109

Asked: Consider the molecule shown here: Cn1nc(COC(=O)N2CCc3ccccc3[C@H]2c2cc(Cl)ccc2OCC(=O)O)c2ccccc21 [Example 296] What is its recorded IC50?
Given back: 1.72

Asked: Data request, read-out IC50, for O=C(O)COc1ccc(Cl)cc1C1c2ccc(Cl)c(Cl)c2CN1C(=O)OCc1ccccc1 (racemic) [Example 558]
Given back: 16.9

Asked: Any idea what its IC50 is? The molecule is O=C(O)COc1ccc(Cl)cc1[C@@H]1c2ccccc2CCN1C(=O)OCc1cccc(F)c1 [Example 355]
Given back: 2.01

Asked: Give its IC50 value. Item: O=C(O)COc1ccc(Cl)cc1C1c2ccccc2CN1C(=O)NCc1ccccc1F (racemic) [Example 552]
Given back: 19.6

Asked: What value of IC50 has been reported for the following molecule? O=C(O)COc1ccc(Cl)cc1C1c2ccc(F)cc2CCN1C(=O)[C@@H]1C[C@H]1c1ccccc1 (mixture of isomers) [Example 428]
Given back: 1.33

---

Biological target: hCRTH2 receptor (Homo sapiens, UniProt Q9Y5Y4)
Construct: expressed in transfected cells; host or cells: HEK293
Assay: Radioligand displacement assay (3H-PGD2) on hCRTH2 receptor membranes
Type: binding
Details: antagonistic activity; 3H-PGD2 displacement on HEK293-hCRTH2 membrane fragments
Measured quantity: IC50

Asked: API: value(readout= IC50, system= hCRTH2 receptor (Homo sapiens, UniProt Q9Y5Y4), query= Cc1ccc(OCC(=O)N2CCc3ccccc3C2c2cc(Cl)ccc2OCC(=O)O)c(C)n1 (racemic) )
Given back: 3.68 nM

Asked: Report IC50 for O=C(O)COc1ccc(Cl)cc1C1c2ccccc2CCN1C(=O)CCCc1ccc(F)cc1 (racemic) tested on hCRTH2 receptor (Homo sapiens, UniProt Q9Y5Y4).
Given back: 11.2 nM

Asked: Entry O=C(O)COc1ccc(Cl)cc1C1c2ccccc2CCN1C(=O)OCc1cccc(F)c1 (racemic) , system hCRTH2 receptor (Homo sapiens, UniProt Q9Y5Y4): what IC50 was measured?
Given back: 12.6 nM

Asked: Please tell me: IC50 of O=C(O)COc1ccc(F)cc1C1c2ccccc2CCN1C(=O)Oc1cccc(Cl)c1 (racemic) , system hCRTH2 receptor (Homo sapiens, UniProt Q9Y5Y4)?
Given back: 687 nM

Asked: Request - read-out IC50 | tested on hCRTH2 receptor (Homo sapiens, UniProt Q9Y5Y4) | molecule COc1ccc2[nH]cc(CCC(=O)N3CCc4ccccc4C3c3cc(F)ccc3OCC(=O)O)c2c1 (racemic)
Given back: 49.7 nM

Asked: Record lookup: for hCRTH2 receptor (Homo sapiens, UniProt Q9Y5Y4), what IC50 belongs to Cc1ccccc1CCCC(=O)N1CCc2ccccc2C1c1cc(Cl)ccc1OCC(=O)O (racemic) ?
Given back: 45 nM

Asked: hCRTH2 receptor (Homo sapiens, UniProt Q9Y5Y4) / IC50 / CC(C)COC(=O)N1CCc2ccccc2C1c1cc(Cl)ccc1OCC(=O)O (racemic) : value?
Given back: 37.6 nM

Asked: Recorded IC50 for O=C(O)COc1ccc(Cl)cc1C1c2ccccc2CCN1C(=O)C1CCc2ccccc2C1 (stereo not shown) with hCRTH2 receptor (Homo sapiens, UniProt Q9Y5Y4), please?
Given back: 134 nM

Asked: Requested read-out IC50, target or system hCRTH2 receptor (Homo sapiens, UniProt Q9Y5Y4), entry O=C(O)COc1ccc(F)cc1[C@@H]1c2ccccc2CCN1C(=O)[C@@H]1C[C@H]1c1ccccc1 (single isomer, unassigned) [Example 30]
Given back: 912 nM

Asked: Record O=C(O)COc1ccc(-n2ccnn2)cc1C1c2ccccc2CCN1C(=O)OCc1ccccc1 (racemic) : what is its IC50 with hCRTH2 receptor (Homo sapiens, UniProt Q9Y5Y4)?
Given back: 7.01 nM
